B1: ETS1 (parent)
chain: YVRDRADLNKDKPVIPAAALAGYT

- Variants of: B1
- protocol-text: protein stability index of a GFP-peptide fusion (GPS, HEK-293T) (PSI 1-6); higher = more stable;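 further: lentivirally expressed fusions sorted by FACS into six bins by GFP to DsRed ratio, PSI derived from sequencing read proportions per bin multiplied by bin number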
- reported-conditions: c terminus: a fixed tail appended
Decide by protein stability index: equal to or exceeding 2 means 1.0, less means 0.0.

| sequence-variant | answer-label |
| --- | --- |
| G22Y | 0.0 |
| V2N | 1.0 |
| N9G | 1.0 |
| I15D | 0.0 |
| Y23I | 1.0 |
| Y23G | 0.0 |
| Y1C | 1.0 |
| A18W | 1.0 |
| N9H | 1.0 |
| T24H | 1.0 |
| D4H | 0.0 |
